test: Metabolic stability in mouse liver microsomes assessed as intrinsic clearance; type: ADME, Microsome; settings: read-out: CLH
result type: microsomal CLint (µL/min/mg)

CC(C)c1cnc(N[C@H]2CCC[C@@H]2NC(=O)c2ccccc2-n2nccn2)cn1 | 403
Cc1ccc(-n2nccn2)c(C(=O)N[C@H]2CCC[C@@H]2Nc2cnc3ccccc3n2)c1 | 442

----------
assay: Oral bioavailability in dog; format: ADME, organism-based, Canis lupus familiaris; conditions: in vivo
result type: bioavailability (%)

CCc1nc(C(F)(F)F)cnc1N[C@H]1CCC[C@@H]1NC(=O)c1ncccc1-n1nccn1 | 77

----------
molecular target: Orexin/Hypocretin receptor type 1 (Homo sapiens, UniProt O43613)
pKi: −log10 of the molar value.
result type: pKi

Cc1nc(C(F)(F)F)cnc1N[C@H]1CCC[C@@H]1NC(=O)c1ccccc1-n1nccn1 | 7.68

----------
experiment: Oral bioavailability in Sprague-Dawley rat; type: ADME, organism-based; details: in vivo
result type: bioavailability (%)

CCc1nc(C(F)(F)F)cnc1N[C@H]1CCC[C@@H]1NC(=O)c1ncccc1-n1nccn1 [CVN-766] | 18

----------
Target: Orexin/Hypocretin receptor type 1 (Homo sapiens)
Sequence (O43613 whole entry): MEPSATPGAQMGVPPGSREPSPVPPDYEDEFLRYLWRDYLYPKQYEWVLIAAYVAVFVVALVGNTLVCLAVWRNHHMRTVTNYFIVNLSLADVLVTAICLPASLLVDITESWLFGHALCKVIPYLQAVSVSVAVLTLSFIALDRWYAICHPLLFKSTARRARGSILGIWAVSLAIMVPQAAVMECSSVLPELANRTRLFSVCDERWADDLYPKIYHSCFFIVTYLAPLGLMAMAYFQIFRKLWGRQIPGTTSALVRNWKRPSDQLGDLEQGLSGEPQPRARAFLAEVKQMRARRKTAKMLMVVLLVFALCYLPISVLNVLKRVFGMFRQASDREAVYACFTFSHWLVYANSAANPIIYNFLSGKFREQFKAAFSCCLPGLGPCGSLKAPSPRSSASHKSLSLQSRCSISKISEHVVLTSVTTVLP
Assay: Antagonist activity at human Ox1R overexpressed in rat Chem-1 cells assessed as inhibition of orexin A induced calcium flux preincubated for 15 mins followed by orexin A addition by FLIPR analysis
// IC50 lookup, one value per entry
result type: IC50 (nM)

Cc1ccc(-n2nccn2)c(C(=O)N[C@H]2CCC[C@@H]2Nc2cnc3ccccc3n2)c1 | 16
Cc1nc(C(F)(F)F)cnc1N[C@H]1CCC[C@@H]1NC(=O)c1ncccc1-n1nccn1 | 32
Cc1nc(C(F)(F)F)cnc1N[C@H]1CCC[C@@H]1NC(=O)c1ccccc1-n1nccn1 | 21
C[C@]1(Nc2cnc(C(F)(F)F)cn2)CCC[C@@H]1NC(=O)c1ncccc1-n1nccn1 | 16
C[C@]1(Nc2cnc(C(F)(F)F)cn2)CCC[C@@H]1NC(=O)c1ccccc1-n1nccn1 | 6

----------
Target: Orexin receptor type 2 (Homo sapiens, UniProt O43614)
Sequence (O43614 whole entry): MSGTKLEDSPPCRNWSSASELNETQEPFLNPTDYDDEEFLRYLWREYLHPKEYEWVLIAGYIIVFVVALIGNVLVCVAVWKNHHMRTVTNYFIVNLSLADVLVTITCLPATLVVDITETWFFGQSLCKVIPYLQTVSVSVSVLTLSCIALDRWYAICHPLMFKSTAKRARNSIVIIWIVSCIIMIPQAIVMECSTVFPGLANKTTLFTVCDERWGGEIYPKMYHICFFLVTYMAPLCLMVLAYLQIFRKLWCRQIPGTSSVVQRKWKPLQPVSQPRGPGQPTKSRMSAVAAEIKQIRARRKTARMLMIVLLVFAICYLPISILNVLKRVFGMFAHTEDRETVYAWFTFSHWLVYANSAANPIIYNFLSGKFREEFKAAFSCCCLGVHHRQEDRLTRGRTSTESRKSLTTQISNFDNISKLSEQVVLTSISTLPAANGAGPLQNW
Experiment: Antagonist activity at human Ox2R overexpressed in rat Chem-1 cells assessed as inhibition of orexin A induced calcium flux preincubated for 15 mins followed by orexin A addition by FLIPR analysis
pIC50: −log10 of the molar value.
result type: pIC50

Cc1ccc(-n2nccn2)c(C(=O)N[C@H]2CCC[C@@H]2Nc2nc3ccc(F)cc3s2)c1 | 5.61
